Target: T1, HLA-DR DRB4*0101 (human)
T1 chain 1: not shown
T1 chain 2: not shown
Assay: radioligand inhibition, purified HLA-DR
Conditions: remark: other sources report otherwise
measurement type: IC50 (nM)

1) SSYLSGANLNLSCHS [CEA.603 peptide 9012.0137] :: 42

(P) KLCIYTDNSIRPEEL [Cyclin D1.123]
(Q) GYVIGTQQATPGPAY [CEA.81 peptide 9019.0110]
(R) SDSVILNVLYGPDAP [CEA.123 peptide 9019.0119 (position 226)]
(Q) Which order do these items take when sorted by rising IC50? List them. Put the labels in the order asked and list them.
(A) P, Q, R
